biological target: recombinant human transglutaminase 2 (Homo sapiens); construct: purchased Zedira T022; test: Transglutaminase assay (DCC-assay): incorporation of dansylcadaverine into dimethylcasein; format: biochemical; settings: recombinant human TG2 10 nM; dansylcadaverine incorporation into dimethylcasein; read-out: IC50 TG2
attribute_measured: IC50

Give its IC50 value. Item: CNC(=O)C(=O)CC[C@H](NC(=O)c1csc(Br)n1)C(=O)Nc1cccn(CC(=O)NC2C3CC4CC(C3)CC2C4)c1=O (stereo partly shown) [II-35] 0.04 to 0.4 µM

Give its IC50 value. Item: CNC(=O)C(=O)CC[C@H](NC(=O)c1oc2ccccc2c1C)C(=O)Nc1cccn(CC(=O)NC2C3CC4CC2CC(C)(C4)C3)c1=O (stereo partly shown) [II-72] < 0.04 µM

Give its IC50 value. Item: CNC(=O)C(=O)CC[C@H](NC(=O)c1cc(C)oc1C)C(=O)Nc1cccn(CC(=O)NC2C3CC4CC(C3)CC2C4)c1=O (stereo partly shown) [II-37] 0.04 to 0.4 µM

Give its IC50 value. Item: CNC(=O)C(=O)CC[C@H](NC(=O)c1nccc2cnccc12)C(=O)Nc1cccn(CC(=O)NC23CCC(C2)C3)c1=O [II-188] 0.4 to 2.5 µM

Give its IC50 value. Item: CNC(=O)C(=O)CC[C@H](NC(=O)c1c(C)nc2sccn12)C(=O)Nc1cccn(CC(=O)NC2C3CC4CC(C3)CC2C4)c1=O (stereo partly shown) [II-66] 0.4 to 2.5 µM

Give its IC50 value. Item: CNC(=O)C(=O)CC[C@H](NC(=O)c1nc(Cl)sc1C)C(=O)Nc1cccn(CC(=O)NC2C3CC4CC(C3)CC2C4)c1=O (stereo partly shown) [II-31] 0.04 to 0.4 µM

Give its IC50 value. Item: CNC(=O)C(=O)CC[C@H](NC(=O)c1cccnn1)C(=O)Nc1cccn(CC(=O)NC2C3CC4CC(C3)CC2C4)c1=O (stereo partly shown) [II-114] 0.04 to 0.4 µM

====

target: recombinant human transglutaminase 2 (Homo sapiens, UniProt P21980); construct: purchased Zedira T022; assay: Transglutaminase assay (DCC-assay): incorporation of dansylcadaverine into dimethylcasein; assay type: biochemical; conditions: recombinant human TG2 10 nM; dansylcadaverine incorporation into dimethylcasein; read-out: IC50 TG2
Sequence (P21980 whole entry): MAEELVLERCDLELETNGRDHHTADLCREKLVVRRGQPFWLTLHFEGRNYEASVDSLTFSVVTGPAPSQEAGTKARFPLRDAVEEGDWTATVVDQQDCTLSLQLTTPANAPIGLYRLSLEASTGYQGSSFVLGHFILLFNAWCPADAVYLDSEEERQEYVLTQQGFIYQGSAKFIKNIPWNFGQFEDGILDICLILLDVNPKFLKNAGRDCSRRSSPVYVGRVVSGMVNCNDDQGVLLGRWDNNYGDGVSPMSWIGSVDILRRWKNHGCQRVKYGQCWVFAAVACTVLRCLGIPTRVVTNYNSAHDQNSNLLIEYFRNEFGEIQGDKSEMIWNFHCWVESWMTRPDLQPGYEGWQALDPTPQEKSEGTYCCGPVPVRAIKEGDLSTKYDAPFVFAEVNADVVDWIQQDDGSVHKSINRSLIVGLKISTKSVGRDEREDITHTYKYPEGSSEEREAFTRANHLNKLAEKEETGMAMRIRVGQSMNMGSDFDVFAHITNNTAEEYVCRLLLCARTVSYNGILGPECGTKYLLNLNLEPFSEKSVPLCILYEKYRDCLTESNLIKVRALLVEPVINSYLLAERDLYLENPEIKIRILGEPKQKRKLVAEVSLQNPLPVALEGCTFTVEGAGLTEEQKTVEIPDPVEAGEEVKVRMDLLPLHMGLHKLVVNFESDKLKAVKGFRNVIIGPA
pIC50: −log10 of the molar value.
Listed molecules paired with reported pIC50

molecule: CNC(=O)C(=O)CC[C@H](NC(=O)c1cnnn1C)C(=O)Nc1cccn(CC(=O)NC2C3CC4CC(C3)CC2C4)c1=O (stereo partly drawn) [II-51]
pIC50: 6.40 to 7.40

Give its pIC50 value. Item: CNC(=O)C(=O)CC[C@H](NC(=O)c1oc2ccccc2c1C)C(=O)Nc1cccn(CC(=O)NC23CCC(C2)C3)c1=O [II-169] > 7.40

Give its pIC50 value. Item: Cc1c(C(=O)N[C@@H](CCC(=O)C(N)=O)C(=O)Nc2cccn(CC(=O)N[C@H]3C[C@H]4CC[C@]3(C)C4(C)C)c2=O)oc2ccccc12 [II-151] 6.40 to 7.40

Give its pIC50 value. Item: CNC(=O)C(=O)CC[C@H](NC(=O)c1cc(Br)sc1Br)C(=O)Nc1cccn(CC(=O)NC2C3CC4CC(C3)CC2C4)c1=O (stereo partly drawn) [II-29] > 7.40

Give its pIC50 value. Item: CNC(=O)C(=O)CC[C@H](NC(=O)c1oc2ccccc2c1C)C(=O)Nc1cccn(CC(=O)NC2(C#N)C3CC4CC(C3)CC2C4)c1=O (stereo partly drawn) [II-73] 6.40 to 7.40

Give its pIC50 value. Item: Cc1nc(C(F)(F)F)sc1C(=O)N[C@@H](CCC(=O)C(N)=O)C(=O)Nc1cccn(CC(=O)NC2C3CC4CC(C3)CC2C4)c1=O (stereo partly drawn) [II-126] 6.40 to 7.40

Just for reference, patent US20240383856A1 is where these values come from.
